Measurement record for EP2 (Homo sapiens (Human), UniProt P43116); quantity recorded: IC50.
# value in µM; strip the unit string

As a guide, the following entries are already answered.
{"STRUCTURE SMILES": "Cc1cc(F)cc2c1cc(C)n2CCNc1cc(-c2ccc(-c3csc(C(=O)O)n3)cc2)ncn1", "IC50 / µM": 0.047}
{"STRUCTURE SMILES": "Cc1nc(-c2ccc(-c3cc(NCCn4c(C)cc5c(C)cc(F)cc54)ncn3)cc2)co1", "IC50 / µM": 0.077}
{"STRUCTURE SMILES": "CCOc1cc(-c2cc(NCCn3c(C)cc4c(OC)cccc43)ncn2)ccc1-c1nnn[nH]1", "IC50 / µM": 0.004}
{"STRUCTURE SMILES": "Cc1cc(F)cc2c1cc(C)n2CCNc1cc(-c2ccc3nccnc3c2)ncn1", "IC50 / µM": 0.088}
{"STRUCTURE SMILES": "CCOc1cc(-c2cc(NCCn3c(C)cc4c(OC)ccc(F)c43)ncn2)cc(F)c1C(=O)O", "IC50 / µM": 0.017}

Look up IC50 with EP2 (Homo sapiens (Human), UniProt P43116) for this compound: COc1cc(F)cc2c1cc(C)n2CCNc1cc(-c2ccc(-c3coc(C)n3)cc2)ncn1
Sequence (P43116 whole entry): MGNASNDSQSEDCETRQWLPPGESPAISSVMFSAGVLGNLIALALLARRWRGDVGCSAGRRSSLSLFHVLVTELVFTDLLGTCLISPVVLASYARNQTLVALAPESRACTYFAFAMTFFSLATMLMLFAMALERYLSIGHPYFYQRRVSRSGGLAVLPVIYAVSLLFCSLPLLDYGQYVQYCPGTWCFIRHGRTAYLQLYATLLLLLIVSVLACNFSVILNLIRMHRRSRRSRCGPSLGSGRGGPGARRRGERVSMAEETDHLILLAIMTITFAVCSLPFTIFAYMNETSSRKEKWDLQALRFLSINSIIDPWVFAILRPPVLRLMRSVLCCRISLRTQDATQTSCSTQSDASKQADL
0.031

Look up IC50 with EP2 (Homo sapiens (Human), UniProt P43116) for this compound: COc1ccc(Cl)c2c1cc(C)n2CCNc1cc(-c2ccc(C(=O)O)c(OC(F)F)c2)ncn1
0.014

Look up IC50 with EP2 (Homo sapiens (Human), UniProt P43116) for this compound: CCOc1cc(-c2cc(NCCn3c(C)cc4c(OC)ccc(F)c43)ncn2)ccc1C(=O)NOC(C)C
0.016

Look up IC50 with EP2 (Homo sapiens (Human), UniProt P43116) for this compound: COc1cc(F)cc2c1cc(C)n2CCNc1cc(-c2ccc(C(=O)O)c(OC(F)F)c2)ncn1
0.006

Look up IC50 with EP2 (Homo sapiens (Human), UniProt P43116) for this compound: CCCc1cc(-c2cc(NCCn3c(C)cc4c(OC)ccc(F)c43)ncn2)cc(Cl)c1C(=O)O
0.005

Look up IC50 with EP2 (Homo sapiens (Human), UniProt P43116) for this compound: COc1cccc2c1cc(C)n2CCNc1cc(-c2ccc(C(=O)O)c(Oc3ccc(F)cc3)c2)ncn1
0.013

Look up IC50 with EP2 (Homo sapiens (Human), UniProt P43116) for this compound: CCOc1cc(-c2cc(NCCn3c(Cl)cc4c(OC)ccc(Cl)c43)ncn2)ccc1C(=O)O
0.01

Look up IC50 with EP2 (Homo sapiens (Human), UniProt P43116) for this compound: COc1cccc2c1cc(C)n2CCNc1cc(-c2cc(Cl)c(C(=O)O)c(OCC(F)(F)F)c2)ncn1
0.01

Look up IC50 with EP2 (Homo sapiens (Human), UniProt P43116) for this compound: COc1ccc(F)c2c1cc(C)n2CCNc1cc(-c2ccc(C(=O)O)c(NCC(F)(F)F)c2)ncn1
0.002

Look up IC50 with EP2 (Homo sapiens (Human), UniProt P43116) for this compound: COc1ccc(F)c2c1cc(C)n2CCNc1cc(-c2ccc(-c3csc(C(=O)O)n3)cc2)ncn1
0.018

Look up IC50 with EP2 (Homo sapiens (Human), UniProt P43116) for this compound: CCCOc1cc(-c2cc(NCCn3c(C)cc4c(C)cc(Cl)cc43)ncn2)cc(Cl)c1C(=O)O
0.021

====

Reported IC50 is given for each of the following compounds.
Biological target: EP4 (Homo sapiens (Human))
Sequence (P35408 whole entry): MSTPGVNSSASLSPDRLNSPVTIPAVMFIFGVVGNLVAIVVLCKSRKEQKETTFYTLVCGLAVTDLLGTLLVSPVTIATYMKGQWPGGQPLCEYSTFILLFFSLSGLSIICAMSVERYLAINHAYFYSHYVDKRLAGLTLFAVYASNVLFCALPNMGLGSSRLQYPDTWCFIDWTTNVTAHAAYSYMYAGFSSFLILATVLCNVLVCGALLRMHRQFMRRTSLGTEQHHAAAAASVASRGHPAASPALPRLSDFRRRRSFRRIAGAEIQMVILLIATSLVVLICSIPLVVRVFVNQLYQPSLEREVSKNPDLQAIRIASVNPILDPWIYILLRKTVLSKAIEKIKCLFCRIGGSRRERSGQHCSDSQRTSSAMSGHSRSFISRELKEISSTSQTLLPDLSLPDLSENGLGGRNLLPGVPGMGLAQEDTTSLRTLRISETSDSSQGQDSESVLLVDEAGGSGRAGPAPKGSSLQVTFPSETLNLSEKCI
Assay: hEP4 cAMP assay (BT549 breast cancer cells, HTRF cAMP)
Assay type: cell-based
Settings: antagonistic activity; mean values where measured multiple times
# value in nM; strip the unit string

As a guide, the following entries are already answered.
{"COMPOUND": "Cc1ccc(F)c2c1cc(C)n2CCNc1cc(-c2ccc(C(=O)O)c(OC(F)(F)F)c2)ncn1 [compound 508]", "IC50 / nM": 583}
{"COMPOUND": "COc1ccc(F)c2c1cc(C)n2CCNc1cc(-c2ccc(-c3cc(C)no3)cc2)ncn1 [compound 716]", "IC50 / nM": 510}
{"COMPOUND": "COc1cc(F)cc2c1cc(C)n2CCNc1cc(-c2ccc3oc(C)nc3c2)ncn1 [compound 687]", "IC50 / nM": 778}
{"COMPOUND": "COc1cc(-c2cc(NCCn3c(C)cc4c(OC)ccc(Cl)c43)ncn2)cc(C)c1C(=O)O [compound 404]", "IC50 / nM": 448}
{"COMPOUND": "Cc1cc2ccccc2n1CCNc1cc(-c2ccc3[nH]ccc3c2)ncn1 [compound 695]", "IC50 / nM": 999}
{"COMPOUND": "Cc1cc(F)c(F)c2c1cc(C)n2CCNc1cc(-c2ccc(-c3noc(=O)[nH]3)cc2)ncn1 [compound 680]", "IC50 / nM": 113}

Continue with the next compound.
Look up IC50 with EP4 (Homo sapiens (Human)) for this compound: CCOc1cc(-c2cc(NCCn3c(C)cc4c(OC)cccc43)ncn2)ccc1-c1nnn[nH]1 [compound 664]
95

====

Target: PTRGER4 (EP4) (Homo sapiens (Human), UniProt P35408)
Sequence (P35408 whole entry, looked up): as the sequence (P35408 whole entry) above
Experiment: hEP4 b-arrestin assay (PathHunter HEK 293 PTGER4 b-arrestin cells)
Format: cell-based
Conditions: antagonistic activity on hEP4; mean where measured multiple times
REPORTED PROPERTY: IC50
Hey, just the number and the unit after it is fine.

{"STRUCTURE SMILES": "CCSc1cc(-c2cc(NCCn3c(C)cc4c(Cl)ccc(Cl)c43)ncn2)ccc1C(=O)O", "ASSAY TARGET": "PTRGER4 (EP4) (Homo sapiens (Human), UniProt P35408)", "IC50": "605 nM"}

Report IC50 for CNc1cc(-c2cc(NCCn3c(C)cc4c(OC)cccc43)ncn2)ccc1C(=O)O please.
204 nM

Report IC50 for COc1cccc2c1cc(C)n2CCNc1cc(-c2ccc(-n3cccn3)cc2)ncn1 please.
557 nM

Report IC50 for Cc1ccc(F)c2c1cc(C)n2CCNc1cc(-c2ccc(C(=O)O)c(CCC(C)C)c2)ncn1 please.
238 nM

====

Target: PTRGER4 (EP4) (Homo sapiens (Human))
Experiment: hEP4 b-arrestin assay (PathHunter HEK 293 PTGER4 b-arrestin cells)
Type: cell-based
Conditions: hEP4 b-arrestin assay (values without asterisk)
REPORTED PROPERTY: pIC50
Interpret pIC50 as the negative base-10 log of the concentration measured in mol/L.

{"COMPOUND": "CCOc1cc(-c2cc(NCCn3c(C)cc4c(OC)cc(Cl)c(F)c43)ncn2)sc1C(=O)O [Example 864]", "RECORDED NUMBER": 8.30}
{"COMPOUND": "CCOc1cc(-c2cc(NCCn3c(C#N)cc4c(OC)ccc(F)c43)ncn2)ccc1NCC(=O)O [Example 861]", "RECORDED NUMBER": 8.70}
{"COMPOUND": "CCOc1cc(-c2cc(NCCn3c(C)cc4c(OC)ccc(F)c43)ncn2)ccc1-c1nc2ccccc2o1 [Example 849]", "RECORDED NUMBER": 6.23}
{"COMPOUND": "COc1ccc(F)c2c1cc(C#N)n2CCNc1cc(-c2ccc3[nH]c(=O)[nH]c3c2)ncn1 [Example 987]", "RECORDED NUMBER": 7.17}
{"COMPOUND": "CCOc1cc(-c2cc(NCCn3c(C#N)cc4c(C)c(F)c(F)cc43)ncn2)ccc1NCC(=O)O [Example 895]", "RECORDED NUMBER": 7.18}

Report pIC50 for CCCOc1nc(-c2cc(NCCn3c(C)cc4c(OC)ccc(F)c43)ncn2)sc1C(=O)O [Example 1035] please.
7.54

Report pIC50 for CCSc1cc(C(=O)O)cc(-c2cc(NCCn3c(C#N)cc4c(OC)ccc(F)c43)ncn2)c1 [Example 922] please.
7.72

Report pIC50 for COc1ccc(F)c2c1cc(C)n2CCNc1cc(-c2cc(C(F)(F)F)c(C(=N)NO)s2)ncn1 [Example 1061] please.
7.44

====

Target: PTGER2 (EP2) (Homo sapiens (Human), UniProt P43116)
Sequence (P43116 whole entry): as the sequence (P43116 whole entry) above
Experiment: hEP2 b-arrestin assay (PathHunter HEK 293 PTGER2 b-arrestin cells)
Type: cell-based
Conditions: antagonistic activity on hEP2; mean where measured multiple times
REPORTED PROPERTY: IC50
Hey, just the number and the unit after it is fine.

As a guide, the following entries are already answered.
{"STRUCTURE SMILES": "COc1ccc(F)c2c1cc(C)n2CCNc1cc(-c2ccc(-c3noc(=O)[nH]3)cc2)ncn1", "ASSAY TARGET": "PTGER2 (EP2) (Homo sapiens (Human), UniProt P43116)", "IC50": "7 nM"}
{"STRUCTURE SMILES": "COc1ccc(F)c2c1cc(C)n2CCNc1cc(-c2ccc(S(N)(=O)=O)c(Cl)c2)ncn1", "ASSAY TARGET": "PTGER2 (EP2) (Homo sapiens (Human), UniProt P43116)", "IC50": "54 nM"}
{"STRUCTURE SMILES": "CNc1cc(-c2cc(NCCn3c(C)cc4c(F)ccc(C)c43)ncn2)ccc1C(=O)O", "ASSAY TARGET": "PTGER2 (EP2) (Homo sapiens (Human), UniProt P43116)", "IC50": "2 nM"}
{"STRUCTURE SMILES": "COc1ccc(F)c2c1cc(C)n2CCNc1cc(-c2ccc(-c3ncc[nH]3)cc2)ncn1", "ASSAY TARGET": "PTGER2 (EP2) (Homo sapiens (Human), UniProt P43116)", "IC50": "23 nM"}

Report IC50 for COc1cccc2c1cc(C)n2CCNc1cc(-c2ccc3[nH]c(C)nc3c2)ncn1 please.
49 nM

Report IC50 for CCCc1cc(-c2cc(NCCn3c(C)cc4cc(F)cc(F)c43)ncn2)ccc1C(=O)O please.
8 nM

Report IC50 for COc1ccc(Cl)c2c1cc(C)n2CCNc1cc(-c2cc(F)c(C(=O)O)s2)ncn1 please.
31 nM

Report IC50 for Cc1cc(F)cc2c1cc(C)n2CCNc1cc(-c2ccc(-c3cc(O)no3)cc2)ncn1 please.
37 nM
